Reported selectivity ratio values for the following molecules.
experiment: in vitro; conditions: human, MT4 cells
Description: Selectivity index, ratio of CC50 for cytotoxicity against human MT4 cells assessed as reduction in cell viability to EC50 for antiviral activity against HIV-1 IIIb infected in human MT4 cells assessed as reduction in virus induced cytopathic effect

Input Smiles: CS(=O)(=O)Nc1ccc2[nH]c(C(=O)N3CCC(Nc4nccc(Oc5ccc(Cl)cc5)n4)CC3)cc2c1
Comparison Operator: =
selectivity ratio: 20
--
Input Smiles: CS(=O)(=O)Nc1ccc2[nH]c(C(=O)N3CCC(Nc4nccc(Oc5ccc(Br)cc5F)n4)CC3)cc2c1
Comparison Operator: =
selectivity ratio: 84
--
Input Smiles: CS(=O)(=O)Nc1ccc2[nH]c(C(=O)N3CCC(Nc4nccc(Oc5cccc(F)c5)n4)CC3)cc2c1
Comparison Operator: =
selectivity ratio: 3
--
Input Smiles: Cc1cc(C#N)cc(C)c1Oc1nc(Nc2ccc(C#N)cc2)nc(N)c1Br
Comparison Operator: >
selectivity ratio: 1430
--
Input Smiles: CS(=O)(=O)Nc1ccc2[nH]c(C(=O)N3CCC(Nc4nccc(Oc5cccc(C(F)(F)F)c5)n4)CC3)cc2c1
Comparison Operator: =
selectivity ratio: 16
--
Input Smiles: CS(=O)(=O)Nc1ccc2[nH]c(C(=O)N3CCC(Nc4nccc(Oc5cccc(Br)c5)n4)CC3)cc2c1
Comparison Operator: =
selectivity ratio: 21
--
Input Smiles: CS(=O)(=O)Nc1ccc2[nH]c(C(=O)N3CCC(Nc4nccc(Oc5ccccc5Cl)n4)CC3)cc2c1
Comparison Operator: =
selectivity ratio: 35
--
Input Smiles: CS(=O)(=O)Nc1ccc2[nH]c(C(=O)N3CCC(Nc4nccc(Oc5cccc(C#N)c5)n4)CC3)cc2c1
Comparison Operator: =
selectivity ratio: 8
